method.description: Potentiometric titration, stability constant of complex with Mn^2+
Assay type: physicochemical
run.parameters: 25 °C, water with 20% DMSO, KNO3
property.label: logKMn^2+, n = 1 (M^−1)
Numbers only, in M^−1.

Use the examples below as a reference point.
input: Suppose we examine the compound Cc1ccc(O)c(/C=N/NC(N)=S)c1 ; what logKMn^2+, n = 1 value has been reported?
output: 13.67

input: What do you have for NC(=S)N/N=C/c1cc([N+](=O)[O-])ccc1O ?
output: 14.48

input: What do you have for NC(=S)N/N=C/c1cc(Cl)ccc1O ?
output: 13.65

input: What do you have for NC(=S)N/N=C/c1cc(O)ccc1O ?
output: 14.27

Now for a further compound.
input: Suppose we examine the compound COc1ccc(/C=N/NC(N)=S)c(O)c1 ; what logKMn^2+, n = 1 value has been reported?
output: 14.01

---

Test system: A549 cells
method.description: MTT cytotoxicity assay
Format: cell-based
property.label: effective concentration (A549 cell survival rate maintained above 80%) (µM)
Numbers only, in µM.

input: Suppose we examine the compound NC(=S)N/N=C/c1cc(Cl)ccc1O ; what effective concentration (A549 cell survival rate maintained above 80%) value has been reported?
output: 50

input: What do you have for NC(=S)N/N=C/c1ccc2c(c1)OCCO2 ?
output: 50

Others:
input: Suppose we examine the compound NC(=S)N/N=C/c1cc([N+](=O)[O-])ccc1O ; what effective concentration (A549 cell survival rate maintained above 80%) value has been reported?
output: 50

---

I'd appreciate it if you could supply logKZn^2+, n = 1 values for the items below.
method.description: Potentiometric titration, stability constant of complex with Zn^2+
Format: physicochemical
run.parameters: 25 °C, water with 20% DMSO, KNO3
Give bare numbers, in M^−1.

Use the examples below as a reference point.
input: Suppose we examine the compound NC(=S)N/N=C/c1cc([N+](=O)[O-])ccc1O ; what logKZn^2+, n = 1 value has been reported?
output: 13.69

input: What do you have for Cc1ccc(O)c(/C=N/NC(N)=S)c1 ?
output: 13.13

Value sought for every listed compound: logKZn^2+, n = 1.
1. COc1ccc(/C=N/NC(N)=S)c(O)c1
2. NC(=S)N/N=C/c1cc(O)ccc1O

output:
13.56
13.53

input: Suppose we examine the compound NC(=S)N/N=C/c1cc(Cl)ccc1O ; what logKZn^2+, n = 1 value has been reported?
output: 12.51

---

Test system: A549 cells
method.description: MTT cytotoxicity assay
Assay type: cell-based
run.parameters: 48 h co-culture
I'd appreciate it if you could supply Concentration of Compounds When 80% of Cells Survive values for the items below.

input: Suppose we examine the compound Cc1ccc(O)c(/C=N/NC(N)=S)c1 [DY1] ; what Concentration of Compounds When 80% of Cells Survive value has been reported?
output: <100 µM

input: What do you have for NC(=S)N/N=C/c1ccc2c(c1)OCCO2 [DY7] ?
output: <50 µM

input: What do you have for CCN(CC)c1ccc(/C=N/NC(N)=S)c(O)c1 [DY6] ?
output: <100 µM

input: What do you have for NC(=S)N/N=C/c1cc([N+](=O)[O-])ccc1O [DY3] ?
output: <50 µM

input: What do you have for NC(=S)N/N=C/c1cc(Cl)ccc1O [DY5] ?
output: <50 µM

Now for a further compound.
input: Suppose we examine the compound COc1ccc(/C=N/NC(N)=S)c(O)c1 [DY4] ; what Concentration of Compounds When 80% of Cells Survive value has been reported?
output: <100 µM

---

I'd appreciate it if you could supply IC50 values for the items below.
subject.of.test: tyrosinase
method.description: Tyrosinase activity analysis (L-DOPA oxidation, spectrophotometry at 475 nm)
Assay type: biochemical
run.parameters: L-DOPA substrate, pH 6.8, 30 °C; approximation from concentration-inhibition curve; read-out: IC50 (semi-inhibitory concentration of tyrosinase)
Numbers only, in nM.

Use the examples below as a reference point.
input: Suppose we examine the compound CCN(CC)c1ccc(/C=N/NC(N)=S)c(O)c1 ; what IC50 value has been reported?
output: 600

input: What do you have for NC(=S)N/N=C/c1ccc2c(c1)OCCO2 ?
output: 41200

input: What do you have for Cc1ccc(O)c(/C=N/NC(N)=S)c1 ?
output: 1880

input: What do you have for COc1ccc(/C=N/NC(N)=S)c(O)c1 ?
output: 1120

input: What do you have for NC(=S)N/N=C/c1cc(Cl)ccc1O ?
output: 1680

Now for a further compound.
input: Suppose we examine the compound NC(=S)N/N=C/c1cc([N+](=O)[O-])ccc1O ; what IC50 value has been reported?
output: 9880

---

I'd appreciate it if you could supply logKCu^2+, n = 1 values for the items below.
method.description: Potentiometric titration, stability constant of complex with Cu^2+
Format: physicochemical
run.parameters: 25 °C, water with 20% DMSO, KNO3
For clarity, give the value followed by its unit.

Use the examples below as a reference point.
input: Suppose we examine the compound COc1ccc(/C=N/NC(N)=S)c(O)c1 ; what logKCu^2+, n = 1 value has been reported?
output: 18.95 ± 0.10 M^−1

input: What do you have for NC(=S)N/N=C/c1cc(Cl)ccc1O ?
output: 19.43 ± 0.22 M^−1

input: What do you have for Cc1ccc(O)c(/C=N/NC(N)=S)c1 ?
output: 19.15 ± 0.11 M^−1

input: What do you have for NC(=S)N/N=C/c1cc([N+](=O)[O-])ccc1O ?
output: 19.10 ± 0.15 M^−1

Now for a further compound.
input: Suppose we examine the compound NC(=S)N/N=C/c1cc(O)ccc1O ; what logKCu^2+, n = 1 value has been reported?
output: 18.83 ± 0.14 M^−1

---

Tested on: A549 cells
method.description: MTT cytotoxicity assay
Format: cell-based
Protocol: The cytotoxic effect of compounds was determined by using in vitro colorimetric MTT assay. The A549 cells were seeded into 96-well microtiter tissue culture plates with a final volume of 100 μL. After attachment for 24 h, the cells were treated with different concentrations (0.1, 1, 10, 50, and 100 μM) of thiosemicarbazone compounds in the culture medium. […] The absorbance at 490 nm was used to quantify the plates using ELx808 Absorbance Microplate Reader (Bio-Tek, Winooski, USA).
property.label: effective concentration (A549 cell survival rate maintained above 80%)

input: Suppose we examine the compound CCN(CC)c1ccc(/C=N/NC(N)=S)c(O)c1 ; what effective concentration (A549 cell survival rate maintained above 80%) value has been reported?
output: up to 100 μM

input: What do you have for COc1ccc(/C=N/NC(N)=S)c(O)c1 ?
output: up to 100 μM

input: What do you have for Cc1ccc(O)c(/C=N/NC(N)=S)c1 ?
output: up to 100 μM
